- MEASUREMENT NOTES: Metabolite profile in rat urine
- Format: in vivo, male Sprague-Dawley rats
- REPORTED CONDITIONS: group 1C (IV dose) pooled urine, 6 h collection
REPORTED METRIC: % AD (percent of administered dose) (% AD)
Numbers only, in % AD.

Examples with answers:
1. CC(C)(CO)C(=O)SCCOP(=O)(NCc1ccccc1)OC[C@H]1O[C@@H](n2cnc3c(=O)[nH]c(N)nc32)[C@](C)(O)[C@@H]1O (mixture of isomers)
0.71
2. CC(C)(CO)C(=O)SCCOP(N)(=O)OC[C@H]1O[C@@H](n2cnc3c(=O)[nH]c(N)nc32)[C@](C)(O)[C@@H]1O (single isomer, unassigned; diastereomer 2) [Compd 3 Diastereomer 2]
0.03
3. C[C@@]1(O)[C@H](O)[C@@H](COP(=O)(O)NCc2ccccc2)O[C@H]1n1cnc2c(=O)[nH]c(N)nc21
0.03
4. CC(C)(CO)C(=O)SCCOP(N)(=O)OC[C@H]1O[C@@H](n2cnc3c(=O)[nH]c(N)nc32)[C@](C)(O)[C@@H]1O (single isomer, unassigned; diastereomer 1) [Compd 3 Diastereomer 1]
0.01

Next up:
The reported % AD (percent of administered dose) of the compound C[C@@]1(O)[C@H](O)[C@@H](CO)O[C@H]1n1cnc2c(=O)[nH]c(N)nc21 [2′-C-methyl guanosine, 9-(2-C-methyl-β-D-ribofuranosyl)guanine, reference compound] was 1.35

---

- Tested on: rat primary hepatocytes
- MEASUREMENT NOTES: Metabolic disposition of [^14C]-Compound 1 and [^14C]-2′-C-methyl guanosine in rat primary hepatocytes (incubation medium, cellular extracts, nucleotide levels)
- Type: in vitro ADME, Sprague Dawley rat
- REPORTED CONDITIONS: rat hepatocytes (Rs458), 1 μM [^14C]-Compound 1, 8 h
REPORTED METRIC: metabolites observed in cellular extracts (% of total radioactivity) (%)
One number for each entry, in %.

Some molecules with known metabolites observed in cellular extracts (% of total radioactivity) results, for comparison:
1) C[C@@]1(O)[C@H](O)[C@@H](COP(=O)(O)OP(=O)(O)O)O[C@H]1n1cnc2c(=O)[nH]c(N)nc21 [Compound 6]
13.27
2) C[C@@]1(O)[C@H](O)[C@@H](COP(=O)(O)O)O[C@H]1n1cnc2c(=O)[nH]c(N)nc21 [Compound 5]
3.51

For C[C@@]1(O)[C@H](O)[C@@H](COP(=O)(O)OP(=O)(O)OP(=O)(O)O)O[C@H]1n1cnc2c(=O)[nH]c(N)nc21 [Compound 7] the molecule record lists metabolites observed in cellular extracts (% of total radioactivity) as 77.6

---

Kindly state Major metabolites observed in cellular extracts (% of total radioactivity) for each of the entries shown.
- System: Huh-7 cells
- MEASUREMENT NOTES: Metabolic disposition of [^14C]-Compound 1 and [^14C]-2′-C-methyl guanosine in Huh-7 cells (incubation medium, cellular extracts, nucleotide levels)
- Format: in vitro ADME, human
- REPORTED CONDITIONS: Huh7; 10 μM [^14C]-Compound 1; 48 h; first series

Some solved entries appear below for comparison.
1. CC(C)(CO)C(=O)SCCOP(=O)(NCc1ccccc1)OC[C@H]1O[C@@H](n2cnc3c(=O)[nH]c(N)nc32)[C@](C)(O)[C@@H]1O (mixture of isomers) [Compound 1]
15.8 % of total radioactivity
2. C[C@@]1(O)[C@H](O)[C@@H](COP(=O)(O)OP(=O)(O)OP(=O)(O)O)O[C@H]1n1cnc2c(=O)[nH]c(N)nc21 [Compound 7]
71.5 % of total radioactivity
3. C[C@@]1(O)[C@H](O)[C@@H](COP(=O)(O)OP(=O)(O)O)O[C@H]1n1cnc2c(=O)[nH]c(N)nc21 [Compound 6]
6.14 % of total radioactivity

API: the following record is the query input.
Entry under test: C[C@@]1(O)[C@H](O)[C@@H](COP(=O)(O)O)O[C@H]1n1cnc2c(=O)[nH]c(N)nc21 [Compound 5] . Its Major metabolites observed in cellular extracts (% of total radioactivity) was 6.57 % of total radioactivity

---

- System: rat primary hepatocytes
- MEASUREMENT NOTES: Metabolic disposition of [^14C]-Compound 1 and [^14C]-2′-C-methyl guanosine in rat primary hepatocytes (incubation medium, cellular extracts, nucleotide levels)
- Type: in vitro ADME, Sprague Dawley rat
- REPORTED CONDITIONS: rat hepatocytes Rs448; 10 μM [^14C]-2′-C-methyl guanosine; 24 h
Field: Major metabolites observed in cellular extracts (% of total radioactivity). Provide a value for each of the compounds that follow.

As a guide, the following entries are already answered.
1. C[C@@]1(O)[C@H](O)[C@@H](COP(=O)(O)OP(=O)(O)OP(=O)(O)O)O[C@H]1n1cnc2c(=O)[nH]c(N)nc21
35.6 % of total radioactivity
2. C[C@@]1(O)[C@H](O)[C@@H](COP(=O)(O)O)O[C@H]1n1cnc2c(=O)[nH]c(N)nc21
2.56 % of total radioactivity

Each compound below has a reported value. Please supply its Major metabolites observed in cellular extracts (% of total radioactivity).
1. C[C@@]1(O)[C@H](O)[C@@H](CO)O[C@H]1n1cnc2c(=O)[nH]c(N)nc21 [2′-C-methyl guanosine, 9-(2-C-methyl-β-D-ribofuranosyl)guanine, reference compound]
2. C[C@@]1(O)[C@H](O)[C@@H](COP(=O)(O)OP(=O)(O)O)O[C@H]1n1cnc2c(=O)[nH]c(N)nc21

1: 51.5 % of total radioactivity; 2: 10.4 % of total radioactivity

---

- Test system: rat primary hepatocytes
- MEASUREMENT NOTES: Metabolic disposition of [^14C]-Compound 1 and [^14C]-2′-C-methyl guanosine in rat primary hepatocytes (incubation medium, cellular extracts, nucleotide levels)
- Format: in vitro ADME, Sprague Dawley rat
- REPORTED CONDITIONS: rat hepatocytes (Rs458), 1 μM [^14C]-Compound 1, 8 h
REPORTED METRIC: metabolites observed in cellular extracts (% of total radioactivity)

1. C[C@@]1(O)[C@H](O)[C@@H](CO)O[C@H]1n1cnc2c(=O)[nH]c(N)nc21 [2′-C-methyl guanosine, 9-(2-C-methyl-β-D-ribofuranosyl)guanine, reference compound]
5.58%
2. C[C@@]1(O)[C@H](O)[C@@H](COP(=O)(O)NCc2ccccc2)O[C@H]1n1cnc2c(=O)[nH]c(N)nc21 [Compound 2]
BLD
3. CC(C)(CO)C(=O)SCCOP(=O)(NCc1ccccc1)OC[C@H]1O[C@@H](n2cnc3c(=O)[nH]c(N)nc32)[C@](C)(O)[C@@H]1O (mixture of isomers) [Compound 1]
BLD

---

- MEASUREMENT NOTES: Metabolite profile in rat liver
- Assay type: in vivo, male Sprague-Dawley rats
- REPORTED CONDITIONS: group 1 (IV dose) pooled liver, 6 h
For each of the molecules below, state its % AD.
Numbers only, in % AD.

1. C[C@@]1(O)[C@H](O)[C@@H](CO)O[C@H]1n1cnc2c(=O)[nH]c(N)nc21 [2′-C-methyl guanosine, 9-(2-C-methyl-β-D-ribofuranosyl)guanine, reference compound]
1.48
2. C[C@@]1(O)[C@H](O)[C@@H](COP(=O)(O)OP(=O)(O)O)O[C@H]1n1cnc2c(=O)[nH]c(N)nc21 [Compound 6]
2.04
3. C[C@@]1(O)[C@H](O)[C@@H](COP(=O)(O)O)O[C@H]1n1cnc2c(=O)[nH]c(N)nc21 [Compound 5]
6.39

Entry C[C@@]1(O)[C@H](O)[C@@H](COP(=O)(O)OP(=O)(O)OP(=O)(O)O)O[C@H]1n1cnc2c(=O)[nH]c(N)nc21 [Compound 7] ; % AD = 0.04

---

- MEASUREMENT NOTES: Metabolite profile in rat liver
- Assay type: in vivo, male Sprague-Dawley rats
- REPORTED CONDITIONS: male, Sprague-Dawley, rat, liver, iv, 50 mg/kg, group 1 (IV dose) pooled liver, 24 h; read-out: liver concentration as μg equivalents/g
REPORTED METRIC: concentration at 24 h (ng/g)
Numbers only, in ng/g.

1. C[C@@]1(O)[C@H](O)[C@@H](COP(=O)(O)OP(=O)(O)O)O[C@H]1n1cnc2c(=O)[nH]c(N)nc21
3770
2. C[C@@]1(O)[C@H](O)[C@@H](COP(=O)(O)O)O[C@H]1n1cnc2c(=O)[nH]c(N)nc21
13900

// recorded concentration at 24 h for C[C@@]1(O)[C@H](O)[C@@H](CO)O[C@H]1n1cnc2c(=O)[nH]c(N)nc21 [2′-C-methyl guanosine, 9-(2-C-methyl-β-D-ribofuranosyl)guanine, reference compound] : 5560

---

- MEASUREMENT NOTES: Metabolite profile in rat liver
- Format: in vivo, male Sprague-Dawley rats
- REPORTED CONDITIONS: group 1 (IV dose) pooled liver, 6 h (Table 56)
- Description: Homogenates were prepared on dry ice in 70% methanol-30% water containing 20 mM EDTA and 20 mM EGTA (about 1× (w/v) weight of the liver) and were stored frozen. […] The supernatant was transferred to a tube and total volume was measured. […] Radioactivity of each supernatant was determined by LSC of duplicate aliquots (100 μL each) for extraction recovery. […] Duplicate aliquots of the reconstituted samples were analyzed by LSC. Each sample was analyzed by HPLC method 2. […]
Answer each item with its documented % HPLC (percent of HPLC peak area in the sample extract).
Answers are plain numbers, in %.

Some compounds with known % HPLC (percent of HPLC peak area in the sample extract) results, for comparison:
1. C[C@@]1(O)[C@H](O)[C@@H](COP(=O)(O)O)O[C@H]1n1cnc2c(=O)[nH]c(N)nc21
63.1
2. C[C@@]1(O)[C@H](O)[C@@H](COP(=O)(O)OP(=O)(O)O)O[C@H]1n1cnc2c(=O)[nH]c(N)nc21
20.1
3. C[C@@]1(O)[C@H](O)[C@@H](COP(=O)(O)OP(=O)(O)OP(=O)(O)O)O[C@H]1n1cnc2c(=O)[nH]c(N)nc21
0.35

For the next question, use this compound.
Noted for C[C@@]1(O)[C@H](O)[C@@H](CO)O[C@H]1n1cnc2c(=O)[nH]c(N)nc21 [2′-C-methyl guanosine, 9-(2-C-methyl-β-D-ribofuranosyl)guanine, reference compound] : its % HPLC (percent of HPLC peak area in the sample extract) reads 14.6
